List of solubility values.
Experiment: Aqueous solubility at 25 degC
Assay type: physicochemical
Condition notes: water

// below: answered compounds
>  <Smiles text>
O=C1N[C@H]2[C@@H]3OP(=O)([O-])O[C@@H]3[C@@H](O)C[C@@H]2c2cc3c(c(O)c21)OCO3.[Na+]

>  <Measured>
> 10000 µg/mL

$$$$
>  <Smiles text>
O=C1N[C@H]2[C@H](O)[C@H](O)[C@@H](O)C[C@@H]2c2cc3c(c(O)c21)OCO3

>  <Measured>
< 1000 µg/mL

$$$$
>  <Smiles text>
O=C1N[C@H]2[C@@H]3OP(=O)([O-])O[C@@H]3[C@@H](O)C[C@@H]2c2cc3c(cc21)OCO3.[K+]

>  <Measured>
> 5000 µg/mL

$$$$
>  <Smiles text>
O=C1N[C@H]2[C@@H]3OP(=O)([O-])O[C@@H]3[C@@H](O)C[C@@H]2c2cc3c(cc21)OCO3.[Na+]

>  <Measured>
> 10000 µg/mL

$$$$

Let us move to another entry and its solubility.
What solubility value was documented for this compound, "O=C1N[C@@H]2C(=C[C@H](O)[C@H]3OP(=O)([O-])O[C@H]32)c2cc3c(cc21)OCO3.[K+]" ?
> 10000 µg/mL

----------
Test system: DU-145
Experiment: Cytotoxicity against human DU145 cells
Assay type: functional
Quantity kind: GI50 (mg/L)
Give the value in mg/L but do not write mg/L after it.

// below: answered compounds
>  <Smiles text>
O=C1N[C@@H]2C(=C[C@H](O)[C@H]3OP(=O)([O-])O[C@H]32)c2cc3c(cc21)OCO3.[Na+]

>  <GI50 (mg/L)>
3.9

$$$$
>  <Smiles text>
O=C1N[C@H]2[C@@H]3OP(=O)([O-])O[C@@H]3[C@@H](O)C[C@@H]2c2cc3c(c(O)c21)OCO3.[K+]

>  <GI50 (mg/L)>
0.54

$$$$

For the record "O=C1N[C@@H]2C(=C[C@H](O)[C@@H](O)[C@H]2O)c2cc3c(cc21)OCO3" , what value of GI50 is listed for DU-145?
0.051

For the record "O=C1N[C@H]2[C@H](O)[C@H](O)[C@@H](O)C[C@@H]2c2cc3c(c(O)c21)OCO3" , what value of GI50 is listed for DU-145?
0.0066

----------
Tested on: DU-145
Experiment: Cytotoxicity against human DU145 cells
Assay type: functional
Quantity kind: GI50 (µg/mL)
Give the value in µg/mL but do not write µg/mL after it.

>  <Smiles text>
O=C1N[C@H]2[C@@H]3OP(=O)([O-])O[C@@H]3[C@@H](O)C[C@@H]2c2cc3c(c(O)c21)OCO3.[Na+]

>  <Quantity kind>
GI50

>  <Measured>
5.2

$$$$

Let us move to another entry and its GI50.
What GI50 value was documented for this compound, "O=C1N[C@H]2[C@H](O)[C@H](O)[C@@H](O)C[C@@H]2c2cc3c(cc21)OCO3" ?
0.04

----------
Tested on: NCI-H460
Experiment: Cytotoxicity against human NCI-H460 cells
Type: functional
Quantity kind: GI50

>  <Smiles text>
O=C1N[C@@H]2C(=C[C@H](O)[C@H]3OP(=O)([O-])O[C@H]32)c2cc3c(cc21)OCO3.[Na+]

>  <Quantity kind>
GI50

>  <Measured>
4.7 µg/mL

$$$$

Let us move to another entry and its GI50.
What GI50 value was documented for this compound, "O=C1N[C@H]2[C@@H]3OP(=O)([O-])O[C@@H]3[C@@H](O)C[C@@H]2c2cc3c(c(O)c21)OCO3.[Li+]" ?
> 1 µg/mL
